For each entry below, report its pIC50 value.
- tested_system: Rat FAAH-1 (Rattus norvegicus)
- Sequence (P97612 1-579): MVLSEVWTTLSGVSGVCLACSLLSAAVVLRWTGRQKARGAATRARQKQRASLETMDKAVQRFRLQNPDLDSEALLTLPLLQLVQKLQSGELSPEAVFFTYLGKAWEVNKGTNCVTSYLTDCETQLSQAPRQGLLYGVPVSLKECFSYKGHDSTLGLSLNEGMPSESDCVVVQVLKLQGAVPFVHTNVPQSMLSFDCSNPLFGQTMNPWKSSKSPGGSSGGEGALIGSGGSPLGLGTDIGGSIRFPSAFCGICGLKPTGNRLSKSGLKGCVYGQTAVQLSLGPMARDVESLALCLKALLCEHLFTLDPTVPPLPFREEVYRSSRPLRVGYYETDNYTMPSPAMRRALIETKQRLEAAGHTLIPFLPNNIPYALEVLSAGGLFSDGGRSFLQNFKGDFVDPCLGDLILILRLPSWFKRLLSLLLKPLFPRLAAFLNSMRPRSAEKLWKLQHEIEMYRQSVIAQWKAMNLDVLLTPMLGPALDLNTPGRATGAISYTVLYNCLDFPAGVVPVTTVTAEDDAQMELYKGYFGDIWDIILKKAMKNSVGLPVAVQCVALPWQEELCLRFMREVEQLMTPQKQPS
- assay_remarks: Assay Method 2: rat FAAH-1 assay, 3H-anandamide hydrolysis in homogenate of SK-N-MC cells transfected with rat FAAH
Counter-ions that a name gives are not always drawn.
One number for each entry, as −log10 of the molar value.

[
  {
    "molecule": "OCc1ccc(-c2cc(NC[C@H](O)c3ccccc3)ncn2)cc1",
    "pIC50": 5.82
  },
  {
    "molecule": "O[C@@H](CNc1cc(-c2cccc(C(F)(F)F)c2)ncn1)c1ccccc1",
    "pIC50": 6.00
  },
  {
    "molecule": "CSc1ccc(-c2cc(NCC(O)c3ccccc3)ncn2)cc1 (centres unmarked)",
    "pIC50": 6.89
  },
  {
    "molecule": "O[C@@H](CNc1cc(-c2ccc(Cl)c(F)c2)ncn1)c1ccccc1 [Example 27, trifluoroacetic acid salt]",
    "pIC50": 6.92
  },
  {
    "molecule": "N#Cc1ccc(-c2cc(NCC(O)c3ccccc3)ncn2)cc1 (centres unmarked)",
    "pIC50": 6.18
  }
]

Please go through the list and note pIC50 for each molecule.
1. OC(CNc1cc(-c2ccc(C(F)(F)F)c(Cl)c2)ncn1)c1ccc(-c2ccccn2)s1 (centres unmarked)
2. CC(C)Oc1ccc(-c2cc(NC[C@H](O)c3ccccc3)ncn2)cc1F [Example 36, trifluoroacetic acid salt]

[out]
1. 7.44
2. 7.70

====

- tested_system: Rat FAAH-1 (Rattus norvegicus, UniProt P97612)
- Sequence (P97612 1-579): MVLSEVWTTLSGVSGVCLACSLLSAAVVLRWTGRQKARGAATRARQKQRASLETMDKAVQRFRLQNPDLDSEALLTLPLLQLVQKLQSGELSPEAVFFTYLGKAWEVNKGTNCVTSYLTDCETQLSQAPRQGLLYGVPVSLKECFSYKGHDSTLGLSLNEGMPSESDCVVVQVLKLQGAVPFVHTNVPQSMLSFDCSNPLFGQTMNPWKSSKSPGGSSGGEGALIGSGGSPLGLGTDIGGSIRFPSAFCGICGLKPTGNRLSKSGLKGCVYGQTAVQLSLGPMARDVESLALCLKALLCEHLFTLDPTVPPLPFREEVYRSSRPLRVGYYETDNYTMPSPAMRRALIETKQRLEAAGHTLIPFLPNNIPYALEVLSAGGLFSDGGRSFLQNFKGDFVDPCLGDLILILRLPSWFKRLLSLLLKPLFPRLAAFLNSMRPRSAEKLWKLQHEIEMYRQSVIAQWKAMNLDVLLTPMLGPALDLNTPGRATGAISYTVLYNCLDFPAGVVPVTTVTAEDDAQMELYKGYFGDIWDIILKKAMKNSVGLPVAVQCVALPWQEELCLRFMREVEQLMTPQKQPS
- assay_remarks: Assay Method 2: rat FAAH-1 assay, 3H-anandamide hydrolysis in homogenate of SK-N-MC cells transfected with rat FAAH
Where a name gives a salt, the structure may show the parent alone.
outcome_measure: pIC50
Answers are plain numbers, as −log10 of the molar value.

Guide cases for pIC50, answers given:
[
  {
    "compound": "OC(CNc1cc(-c2cc3ccccc3s2)ncn1)c1ccccc1 (centres unmarked)",
    "pIC50": 6.67
  },
  {
    "compound": "OC(CNc1cc(-c2ccc(C(F)(F)F)c(Cl)c2)ncn1)c1csc2ccccc12 (centres unmarked)",
    "pIC50": 6.77
  },
  {
    "compound": "O[C@@H](CNc1cc(-c2ccc(C(F)(F)F)c(Cl)c2)nc(C(F)(F)F)n1)c1ccccc1 [Example 93, trifluoroacetic acid salt]",
    "pIC50": 6.82
  },
  {
    "compound": "CNc1nc(NC[C@H](O)c2ccccc2)cc(-c2ccc(C(F)(F)F)c(Cl)c2)n1 [Example 141, trifluoroacetic acid salt]",
    "pIC50": 8.30
  },
  {
    "compound": "OC(CNc1cc(-c2ccc(C(F)(F)F)c(Cl)c2)ncn1)c1cc(-c2ccc(Cl)cc2)no1 (centres unmarked)",
    "pIC50": 6.80
  },
  {
    "compound": "CC(=O)c1ccc(-c2cc(NCC(O)c3ccccc3)ncn2)cc1 (centres unmarked)",
    "pIC50": 7.18
  },
  {
    "compound": "OC(CNc1cc(-c2ccc(OC(F)(F)F)cc2)ncn1)c1ccc(Cl)cc1 (centres unmarked)",
    "pIC50": 7.38
  }
]

[in] Recorded pIC50 of Cc1nc(NC[C@H](O)c2ccccc2)cc(-c2ccc(Cl)c(Cl)c2)n1 , please.
[out] 6.57

====

- tested_system: Rat FAAH-1 (Rattus norvegicus, UniProt P97612)
- assay_remarks: Assay Method 2: rat FAAH-1 assay, 3H-anandamide hydrolysis in homogenate of SK-N-MC cells transfected with rat FAAH
Provide the reported IC50 of each item.

Worked examples, 3 compounds total:
[
  {
    "compound": "OC(CNc1cc(-c2ccc(C(F)(F)F)c(Cl)c2)ncn1)c1nc2ccccc2s1 (stereo not shown)",
    "IC50": "> 10 µM"
  },
  {
    "compound": "O[C@@H](CNc1cc(-c2ccc(I)cc2)ncn1)c1ccccc1",
    "IC50": "0.06 µM"
  },
  {
    "compound": "COc1ccccc1C(O)CNc1cc(-c2ccc(OC(F)(F)F)cc2)ncn1 (stereo not shown)",
    "IC50": "> 10 µM"
  }
]

[in] Would you mind telling me what IC50 value was observed for CC(=O)Nc1cccc(-c2cc(NCC(O)c3ccccc3)ncn2)c1 (stereo not shown) ?
[out] > 10 µM

====

- tested_system: FAAH (Homo sapiens)
- Sequence (O00519 1-579): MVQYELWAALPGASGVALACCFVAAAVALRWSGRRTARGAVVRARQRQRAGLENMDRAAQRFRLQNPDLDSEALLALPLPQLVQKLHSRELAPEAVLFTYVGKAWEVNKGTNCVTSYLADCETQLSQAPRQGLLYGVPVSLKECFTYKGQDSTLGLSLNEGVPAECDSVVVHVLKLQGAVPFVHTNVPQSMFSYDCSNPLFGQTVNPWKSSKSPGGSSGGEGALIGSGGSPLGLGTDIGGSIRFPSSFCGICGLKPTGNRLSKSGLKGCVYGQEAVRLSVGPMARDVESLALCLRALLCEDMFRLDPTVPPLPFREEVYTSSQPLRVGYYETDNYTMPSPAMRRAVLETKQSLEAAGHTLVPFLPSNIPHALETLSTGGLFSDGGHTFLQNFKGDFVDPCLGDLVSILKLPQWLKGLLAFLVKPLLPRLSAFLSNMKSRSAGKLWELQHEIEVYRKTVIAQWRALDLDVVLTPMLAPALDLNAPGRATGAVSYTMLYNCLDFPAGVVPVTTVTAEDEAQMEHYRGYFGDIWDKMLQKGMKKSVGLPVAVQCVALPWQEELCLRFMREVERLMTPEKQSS
- assay_remarks: Assay Method 1: FAAH assay, 3H-anandamide hydrolysis in homogenate of T84 cells or SK-N-MC cells transfected with human FAAH
outcome_measure: pIC50
Answers are plain numbers, as −log10 of the molar value.

The following compounds have reported results that may help.
[
  {
    "compound": "CC(=O)c1ccc(-c2cc(NCC(O)c3ccccc3)ncn2)cc1 (stereo not drawn)",
    "tested_system": "FAAH (Homo sapiens)",
    "pIC50": 7.59
  },
  {
    "compound": "O[C@@H](CNc1cc(-c2ccc(Cl)c(Cl)c2)ncn1)c1ccccc1",
    "tested_system": "FAAH (Homo sapiens)",
    "pIC50": 7.74
  }
]

Consider the record given below.
[in] Which pIC50 value is on record for OC(CNc1cc(-c2ccc(C(F)(F)F)c(Cl)c2)ncn1)c1ccc2ccccc2c1 (stereo not drawn) ?
[out] 7.33
